- Target entity: Human Recombinant FAAH (fatty acid amide hydrolase) (Homo sapiens, UniProt O00519)
- Sequence (O00519 whole entry): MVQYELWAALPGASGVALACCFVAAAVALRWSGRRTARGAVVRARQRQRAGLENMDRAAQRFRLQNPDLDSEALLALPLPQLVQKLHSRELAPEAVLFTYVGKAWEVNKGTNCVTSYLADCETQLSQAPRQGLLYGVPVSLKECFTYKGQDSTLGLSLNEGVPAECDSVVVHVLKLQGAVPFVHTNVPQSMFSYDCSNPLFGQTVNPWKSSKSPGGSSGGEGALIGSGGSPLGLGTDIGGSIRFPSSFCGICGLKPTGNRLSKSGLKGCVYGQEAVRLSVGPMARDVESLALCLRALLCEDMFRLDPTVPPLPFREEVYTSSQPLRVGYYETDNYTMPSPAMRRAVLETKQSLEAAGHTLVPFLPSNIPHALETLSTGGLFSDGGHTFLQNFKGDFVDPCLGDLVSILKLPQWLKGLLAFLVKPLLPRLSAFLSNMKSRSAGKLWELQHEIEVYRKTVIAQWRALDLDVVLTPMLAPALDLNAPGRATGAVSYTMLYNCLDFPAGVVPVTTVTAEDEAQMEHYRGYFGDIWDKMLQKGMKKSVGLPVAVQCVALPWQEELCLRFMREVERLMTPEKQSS
- Test description: FAAH inhibition, fluorimetric assay with OMP substrate, recombinant enzyme
- Assay type: biochemical
- Details: recombinant FAAH
Endpoint name: activity / potency towards FAAH (in words)

O=C(O)c1ccc(O)cc1 [4-HO-benzoate, 4-hydroxybenzoic acid]    completely inactive
COC(=O)c1ccc(O)cc1 [Methylparaben, methylparaben]    completely inactive

---

Assignment: determine reported IC50 for the given molecules.
- Target entity: Human Recombinant hCE2 (carboxylesterase 2) (Homo sapiens, UniProt O00748)
- Sequence (O00748 27-559): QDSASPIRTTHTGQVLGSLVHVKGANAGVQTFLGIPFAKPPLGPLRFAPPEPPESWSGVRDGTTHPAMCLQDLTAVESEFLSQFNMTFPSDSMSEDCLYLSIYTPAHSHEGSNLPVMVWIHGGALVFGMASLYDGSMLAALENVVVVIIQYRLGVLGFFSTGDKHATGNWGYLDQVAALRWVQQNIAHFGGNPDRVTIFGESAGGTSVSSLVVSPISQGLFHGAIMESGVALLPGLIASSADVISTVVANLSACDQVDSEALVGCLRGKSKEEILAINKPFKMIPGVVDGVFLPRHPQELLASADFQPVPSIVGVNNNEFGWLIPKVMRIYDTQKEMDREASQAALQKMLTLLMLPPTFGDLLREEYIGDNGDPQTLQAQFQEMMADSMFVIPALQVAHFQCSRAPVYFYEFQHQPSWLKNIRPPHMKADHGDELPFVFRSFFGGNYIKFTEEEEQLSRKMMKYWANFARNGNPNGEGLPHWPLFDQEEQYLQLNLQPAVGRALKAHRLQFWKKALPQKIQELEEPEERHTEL
- Test description: Esterase inhibition, fluorimetric assay with CMNA substrate

Q: IC50 of O=C(OCc1ccccc1)c1ccc(O)cc1 on Human Recombinant hCE2 (carboxylesterase 2) (Homo sapiens, UniProt O00748)?
Ans: > 10 µM

Q: Lab note: need IC50 for CCCCOC(=O)c1ccc(O)cc1 on Human Recombinant hCE2 (carboxylesterase 2) (Homo sapiens, UniProt O00748), anyone have it?
Ans: > 10 µM

Q: Hello, I am looking for reported IC50 with Human Recombinant hCE2 (carboxylesterase 2) (Homo sapiens, UniProt O00748) for NC(=O)c1cccc(-c2cccc(OC(=O)NC3CCCCC3)c2)c1 [URB597, reference compound] . Could you help?
Ans: 0.73 µM

This collection of values is drawn from paper PMC5096949.
